TESTED TARGET: Left-right determination factor 2 (Homo sapiens) (UniProt O00292)
Sequence (O00292 whole entry, looked up): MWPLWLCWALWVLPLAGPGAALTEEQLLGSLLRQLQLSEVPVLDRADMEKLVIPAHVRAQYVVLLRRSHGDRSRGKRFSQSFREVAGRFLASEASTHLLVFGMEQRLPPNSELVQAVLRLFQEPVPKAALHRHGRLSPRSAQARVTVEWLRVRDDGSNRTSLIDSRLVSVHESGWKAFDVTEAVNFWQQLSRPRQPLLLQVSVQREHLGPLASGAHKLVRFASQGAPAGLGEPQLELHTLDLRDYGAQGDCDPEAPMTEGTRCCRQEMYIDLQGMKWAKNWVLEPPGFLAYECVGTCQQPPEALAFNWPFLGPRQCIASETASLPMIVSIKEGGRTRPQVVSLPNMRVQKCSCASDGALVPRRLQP
ASSAY TEXT: LEFTY2 binders on small-molecule microarrays, primary screen, biochemical, small-molecule microarray, 635 nm fluorescence scan (AID 1110)
REPORTED CONDITIONS: LEFTY2 binding, higher = more signal
OBSERVED PROPERTY: composite z-score
Field format: numeric only.

Which value of composite z-score has been reported for "COc1ccc([Si](C)(C)[C@H]2[C@H](CCn3cc(CCO)nn3)O[C@@]3(C(=O)N(Cc4ccc(N5CCOC5=O)cc4)c4ccccc43)[C@@H]2C)cc1" in the records?
-0.129

And the next one, "Cc1ccc(S[C@]2(C(=O)NCc3ccccc3)CC(=O)N(Cc3ccccc3)[C@@H]2c2ccc(CO)cc2)cc1" ?
-0.934

And the next one, "C=C(CCCC)C(=O)CC[C@H](OC(=O)c1cccnc1)c1cccc(OCCO)c1" ?
0.0112

And the next one, CC1CC/C=C\[C@H]2OC34C=CCN(Cc5ccccc5)C(=O)[C@H]3N(CCCCCO)C(=O)[C@@H]4C2C(=O)O1 (some centres undefined) ?
-0.918

And the next one, "O=C1O[C@H](c2ccccc2)[C@H](c2ccccc2)N2[C@H]1[C@@H](C(=O)Nc1nc3ccccc3s1)[C@]1(C(=O)Nc3ccccc31)[C@H]2c1ccc(O)cc1" ?
0.684

And the next one, "[N-]=[N+]=NCc1ccccc1C[C@]1(C(=O)O)N=C(c2ccc(OCCCO)cc2)O[C@H]1c1ccccc1CN=[N+]=[N-]" ?
-0.524

And the next one, "CC(C)N1C(=O)c2ccccc2[C@@H](C(=O)NCCCN(C)C)[C@@H]1c1ccc(CO)cc1" ?
-0.89

And the next one, "COc1ccc([Si](C)(C)[C@@H]2[C@@H](CC(=O)N(CCO)Cc3ccccc3)O[C@]3(C(=O)N(C)c4ccccc43)[C@H]2C)cc1" ?
0.813

And the next one, "O=c1oc(-c2ccccc2)nc2cc(Br)ccc12" ?
0.69

And the next one, "O=C1c2ccccc2[C@@]2(Cc3ccccc3N(Cc3ccccc3)C2=O)[C@H](c2ccc(CO)cc2)N1C1CCCCC1" ?
0.186

And the next one, "C=CC[C@@H](OC(=O)Nc1ccc(OC)cc1)c1ccc(O)c2ccccc12" ?
1.07

And the next one, "O=C1O[C@@H](c2ccccc2)[C@@H](c2ccccc2)N2[C@@H](c3ccccc3OCCO)[C@]3(C(=O)Nc4ccc(C#CC5(O)CCCCCC5)cc43)[C@@H](C(=O)Nc3nc4ccccc4s3)[C@H]12" ?
0.628

And the next one, "COc1ccc(C#Cc2ccc3c(c2)[C@]2(C(=O)N3)[C@H](C(=O)NC[C@H](O)c3ccccc3)[C@H]3C(=O)O[C@H](c4ccccc4)[C@H](c4ccccc4)N3[C@@H]2c2ccccc2OCCO)cc1" ?
0.5

And the next one, "O=C(O)[C@H]1C[C@H]2C(=O)NCC(=O)N2[C@H]1c1ccc(O)cc1" ?
0.205

And the next one, O=C1OCCC=C[C@H]2OC34C=CCN(Cc5ccccc5)C(=O)[C@H]3N(CCCCCO)C(=O)[C@@H]4C12 (some centres undefined) ?
-1.24

And the next one, "COCC1=C2[C@@H](CCc3ccccc3)OB(O)C[C@@H]2[C@@H]2C(=O)N(Cc3ccccc3)C(=O)[C@@H]2C1" ?
0.0192

And the next one, "C=CC[C@@]1(C(=O)N2CCOCC2)N=C(c2ccc(OCCCO)cc2)O[C@@H]1c1ccccc1N=[N+]=[N-]" ?
0.37

And the next one, "COC(=O)C(CC#Cc1ccc2c(c1)[C@]1(C(=O)N2)[C@H](C(=O)NC[C@H](O)c2ccccc2)[C@H]2C(=O)O[C@H](c3ccccc3)[C@H](c3ccccc3)N2[C@@H]1c1ccc(OCCO)cc1)C(=O)OC" ?
0.696

And the next one, COc1cccc(C(=O)O[C@H]2CC[C@]3(C)C4=C(CCC3C2(C)C)[C@]2(C)CC[C@H]([C@H](C)CCCC(C)C)[C@@]2(C)CC4)c1 (some centres undefined) ?
0.359

And the next one, "COCCOC(=O)N1C(=O)[C@@]2(c3cc(C#CCNC(N)=O)ccc31)[C@H](c1ccc(O)cc1)N1[C@H](c3ccccc3)[C@H](c3ccccc3)OC(=O)[C@H]1[C@@H]2C(=O)Nc1nc2ccccc2s1" ?
0.691

And the next one, CCN(CC)c1ccc(N2CC=CC34O[C@@H]5/C=C\CCCOC(=O)C5[C@H]3C(=O)N(C(CO)C(C)C)[C@@H]4C2=O)cc1 (some centres undefined) ?
-0.393

And the next one, "CCCNC(=O)[C@@H]1c2ccccc2C(=O)N(Cc2ccccc2)[C@H]1c1ccc(CO)cc1" ?
-0.595

And the next one, "Cc1c(NC(=O)CC#N)c(=O)n(-c2ccccc2)n1C" ?
0.364

And the next one, "COCCOC(=O)N1C(=O)[C@@]2(c3cc(C#CC4=CCCCC4)ccc31)[C@H](C(=O)N1CCc3cc(OC)c(OC)cc3C1)[C@H]1C(=O)O[C@H](c3ccccc3)[C@H](c3ccccc3)N1[C@@H]2c1ccccc1OCCO" ?
0.546

And the next one, COC(=O)C1=CC(CCCO)=CC(C2CC2)N(Cc2sc3ccccc3c2Cl)C=C1C(=O)OC (centres undefined) ?
0.101

And the next one, "C=C(CCCC)/C(=C/C[C@H](OC(C)=O)c1ccc(CO)o1)c1cnc2ccccc2c1" ?
0.487

And the next one, "CCCCC=C[C@@H](NC(=O)c1cccs1)c1ccccc1" ?
-0.286

And the next one, "[N-]=[N+]=NCc1ccccc1[C@H]1OC(c2ccc(OCCCO)cc2)=N[C@@]1(CCS(=O)(=O)c1ccccc1)C(=O)N1CCOCC1" ?
0.402

And the next one, "O=C(CS)NCCCCCCNC(=O)[C@H]1C[C@H]2C(=O)NCC(=O)N2[C@H]1c1ccc(O)cc1" ?
-0.571
